Data origin, for the record: ChEMBL document CHEMBL5154791

biological target: CYP3A4 (Homo sapiens, UniProt P08684); test: Inhibition of CYP3A4 (unknown origin) at 10 uM relative to control; assay type: ADME
Sequence (P08684 whole entry): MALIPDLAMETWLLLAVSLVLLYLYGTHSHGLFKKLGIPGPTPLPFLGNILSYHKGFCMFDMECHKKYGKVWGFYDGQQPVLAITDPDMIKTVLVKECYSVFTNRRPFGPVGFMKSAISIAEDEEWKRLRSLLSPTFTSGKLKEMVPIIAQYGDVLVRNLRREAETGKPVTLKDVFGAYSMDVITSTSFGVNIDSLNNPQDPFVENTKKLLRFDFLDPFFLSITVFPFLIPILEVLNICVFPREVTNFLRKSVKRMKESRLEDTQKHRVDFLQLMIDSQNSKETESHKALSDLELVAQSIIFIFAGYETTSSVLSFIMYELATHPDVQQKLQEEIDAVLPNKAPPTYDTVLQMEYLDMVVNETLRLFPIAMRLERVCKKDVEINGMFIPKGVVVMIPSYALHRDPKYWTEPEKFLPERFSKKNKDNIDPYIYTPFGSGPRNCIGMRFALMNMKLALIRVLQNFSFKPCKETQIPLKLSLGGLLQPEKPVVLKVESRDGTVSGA
REPORTED_METRIC: inhibition at 10 µM (%)
One number for each entry, in %.

# input Consider the compound `CCc1cc(=O)[nH]c(-n2nc(C)cc2NC(=O)c2cc(C)ccc2F)n1` . State its measured inhibition at 10 µM.
# output -0.9

---

target: Adenylate cyclase type 8 (Homo sapiens, UniProt P40145); assay: Inhibition of Ca2+/ CAM stimulated human AC8 activity expressed in AC3 and AC6-knockout HEK293 cells assessed as A23187 stimulated cAMP accumulation incubated for 30 mins followed by […] in presence of IBMX for 1 hr by HTRF assay relative to control; format: cell-based; design: concentration or dose not given beside the values; details: time 90.0 min
Sequence (P40145 whole entry): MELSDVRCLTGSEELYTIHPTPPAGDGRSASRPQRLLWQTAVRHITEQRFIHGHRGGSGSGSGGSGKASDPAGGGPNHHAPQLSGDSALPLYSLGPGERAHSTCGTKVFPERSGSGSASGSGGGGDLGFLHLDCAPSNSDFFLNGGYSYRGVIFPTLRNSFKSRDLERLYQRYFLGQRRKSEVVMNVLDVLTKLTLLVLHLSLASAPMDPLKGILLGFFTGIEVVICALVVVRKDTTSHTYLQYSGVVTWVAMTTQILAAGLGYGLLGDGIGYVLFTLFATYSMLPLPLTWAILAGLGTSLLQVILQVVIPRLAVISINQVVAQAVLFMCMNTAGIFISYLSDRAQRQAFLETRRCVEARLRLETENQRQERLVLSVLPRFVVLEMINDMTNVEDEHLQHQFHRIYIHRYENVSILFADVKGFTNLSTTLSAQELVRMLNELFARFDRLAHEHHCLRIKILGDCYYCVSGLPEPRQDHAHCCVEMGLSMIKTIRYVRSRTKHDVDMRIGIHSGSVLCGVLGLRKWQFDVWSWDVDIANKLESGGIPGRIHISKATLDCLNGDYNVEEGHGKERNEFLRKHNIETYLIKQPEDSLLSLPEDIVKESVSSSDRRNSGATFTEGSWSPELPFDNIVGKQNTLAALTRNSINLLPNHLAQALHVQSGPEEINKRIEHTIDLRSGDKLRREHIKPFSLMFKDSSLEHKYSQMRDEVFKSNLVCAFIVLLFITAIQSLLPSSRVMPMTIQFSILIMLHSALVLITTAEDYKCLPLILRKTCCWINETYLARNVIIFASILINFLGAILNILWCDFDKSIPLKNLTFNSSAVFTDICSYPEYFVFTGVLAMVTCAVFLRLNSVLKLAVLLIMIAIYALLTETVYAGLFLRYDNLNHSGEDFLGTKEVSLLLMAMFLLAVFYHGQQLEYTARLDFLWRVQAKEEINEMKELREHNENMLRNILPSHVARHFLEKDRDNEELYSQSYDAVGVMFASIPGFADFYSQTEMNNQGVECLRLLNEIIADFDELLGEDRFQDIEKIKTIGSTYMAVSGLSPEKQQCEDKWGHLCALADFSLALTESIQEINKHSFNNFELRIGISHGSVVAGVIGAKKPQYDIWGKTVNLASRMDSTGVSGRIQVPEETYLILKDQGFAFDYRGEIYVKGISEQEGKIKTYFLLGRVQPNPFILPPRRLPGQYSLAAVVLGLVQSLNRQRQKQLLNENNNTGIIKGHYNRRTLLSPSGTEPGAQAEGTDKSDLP
Yes means recorded inhibition is 20% or above; No means it is below 20%.

# input Threshold query (inhibition >= 20%) on `CCc1cc(=O)[nH]c(-n2nc(C)cc2NC(=O)c2cccc(C3CC3)c2)n1`
# output No

# input Threshold query (inhibition >= 20%) on `CCc1cc(=O)[nH]c(-n2nc(C)cc2NC(=O)c2cccc(F)c2)n1`
# output Yes

# input Threshold query (inhibition >= 20%) on `CCc1cc(=O)[nH]c(-n2nc(C)cc2NC(=O)c2cccc(C(C)(C)C)c2)n1`
# output Yes

# input Threshold query (inhibition >= 20%) on `CCc1cc(=O)[nH]c(-n2nc(C)cc2NC(=O)c2ccccc2CC)n1`
# output Yes

Next compound, please.
# input Threshold query (inhibition >= 20%) on `CCc1cc(=O)[nH]c(-n2nc(C)cc2NC(=O)c2cccc(Br)c2)n1`
# output No
